These data points were gathered from paper PMC12108296.

# ASSAY_INFO: 1H NMR-pH titration (macroscopic and microscopic pKa)
# Type: physicochemical
# APPLIED_CONDITIONS: H2O/D2O 95:5 (v/v), first step microconstant of the aromatic ammonium group, calculated using Equation (3); read-out: pKa^A
READOUT_LABEL: pKa

{"columns": ["MOLECULE", "ENDPOINT_VALUE"],
 "data": [
  ["Nc1ccccc1C(=O)C[C@H](N)C(=O)O", 1.39],
  ["Nc1c(O)cccc1C(=O)CC(N)C(=O)O (centres unmarked) [3-hydroxykynurenine]", 1.82]
]}

* * *

# ASSAY_INFO: 1H NMR-pH titration (macroscopic and microscopic pKa)
# Assay type: physicochemical
# APPLIED_CONDITIONS: H2O/D2O 95:5 (v/v), macroconstant from methylene signal; 298.15 K, ionic strength 0.15 mol/L; read-out: pKa1 (NMR)

{"columns": ["COMPOUND", "pKa"],
 "data": [
  ["Nc1c(O)cccc1C(=O)CC(N)C(=O)O (centres unmarked) [3-hydroxykynurenine]", 1.56],
  ["Nc1ccccc1C(=O)C[C@H](N)C(=O)O", 1.19]
]}

* * *

# ASSAY_INFO: pH-potentiometric titration (pKa)
# Type: physicochemical
# APPLIED_CONDITIONS: aqueous HCl solution with KCl, titrated with KOH; extreme acidic pKa of the carboxyl group, rough estimate; single nonlinear curve fit; 298.15 K, ionic strength 0.15 mol/L; read-out: pKa1 (by extrapolation of potentiometry)
# Method: An ECO automatic titrator (Metrohm AG, Herisau, Switzerland) with a Metrohm 6.0234.110 combined pH glass electrode was used for the potentiometric titrations under automatic PC control. The electrode was calibrated with aqueous standard buffer solutions. Constant temperature (298.15 ± 0.1 K) was provided by a thermostated double-walled glass cell. Difference titrations were carried out in the absence (blank) and presence of the titrand. […]
READOUT_LABEL: pKa

{"columns": ["STRUCTURE_STRING", "READOUT_LABEL", "ENDPOINT_VALUE"],
 "data": [
  ["O=C(O)c1ccccn1", "pKa", "~0.63"]
]}

* * *

# ASSAY_INFO: 1H NMR-pH titration (macroscopic and microscopic pKa)
# Type: physicochemical
# APPLIED_CONDITIONS: H2O/D2O 95:5 (v/v), ± standard error of fit; 298.15 K, ionic strength 0.15 mol/L, H2O/D2O 95:5; read-out: pKa (NMR-pH titration)
READOUT_LABEL: pKa

{"columns": ["STRUCTURE_STRING", "ENDPOINT_VALUE"],
 "data": [
  ["O=C(O)c1ccccn1", 5.19]
]}

* * *

# ASSAY_INFO: pH-potentiometric titration (pKa)
# Format: physicochemical
# APPLIED_CONDITIONS: aqueous HCl solution with KCl, titrated with KOH, 298.15 K, ionic strength 0.15 mol/L; read-out: pKa fitted in the basic pH region (pH potentiometry titration)
READOUT_LABEL: pKa

{"columns": ["STRUCTURE_STRING", "ENDPOINT_VALUE"],
 "data": [
  ["Nc1ccccc1C(=O)C[C@H](N)C(=O)O", 9.13]
]}

* * *

# ASSAY_INFO: pH-potentiometric titration (pKa)
# Type: physicochemical
# APPLIED_CONDITIONS: aqueous HCl solution with KCl, titrated with KOH, macroconstant; 298.15 K, ionic strength 0.15 mol/L; read-out: pKa4 (potentiometry)
# Experimental: An ECO automatic titrator (Metrohm AG, Herisau, Switzerland) with a Metrohm 6.0234.110 combined pH glass electrode was used for the potentiometric titrations under automatic PC control. The electrode was calibrated with aqueous standard buffer solutions. Constant temperature (298.15 ± 0.1 K) was provided by a thermostated double-walled glass cell. Difference titrations were carried out in the absence (blank) and presence of the titrand. […]

{"columns": ["COMPOUND", "pKa"],
 "data": [
  ["Nc1c(O)cccc1C(=O)CC(N)C(=O)O (stereo not shown) [3-hydroxykynurenine]", 9.55]
]}

* * *

# ASSAY_INFO: pH-potentiometric titration (pKa)
# Format: physicochemical
# APPLIED_CONDITIONS: aqueous HCl solution with KCl, titrated with KOH, triplicate; ± standard error; 298.15 K, ionic strength 0.15 mol/L; read-out: pKa2 (potentiometry)
READOUT_LABEL: pKa

{"columns": ["COMPOUND", "ENDPOINT_VALUE"],
 "data": [
  ["O=C(O)c1ccccn1 [picolinic acid]", 5.22]
]}

* * *

# ASSAY_INFO: pH-potentiometric titration (pKa)
# Assay type: physicochemical
# APPLIED_CONDITIONS: aqueous HCl solution with KCl, titrated with KOH, unreliable, since two values could not be fitted; read-out: single pKa fitted in the acidic pH region (pH potentiometry titration)
Listing: pKa of selected compounds

{"columns": ["COMPOUND", "pKa"],
 "data": [
  ["Nc1c(O)cccc1C(=O)CC(N)C(=O)O (centres unmarked) [3-hydroxykynurenine]", 2.53],
  ["Nc1ccccc1C(=O)C[C@H](N)C(=O)O [kynurenine]", 2.39]
]}

* * *

# ASSAY_INFO: UV-pH titration (pKa)
# Format: physicochemical
# APPLIED_CONDITIONS: aqueous HCl/NaOH solutions of varying pH, single dissociation step; UV-pH titration; 298 K, ionic strength 0.15 mol/L; read-out: pKa1 (UV)

{"columns": ["MOLECULE", "pKa"],
 "data": [
  ["O=C(O)c1cc(=O)c2ccccc2[nH]1 [kynurenic acid]", "~2.4"]
]}

* * *

# ASSAY_INFO: pH-potentiometric titration (pKa)
# Assay type: physicochemical
# APPLIED_CONDITIONS: aqueous HCl solution with KCl, titrated with KOH, value is unreliable due to precipitate formation; read-out: pKa fitted (pH potentiometry titration)

{"columns": ["COMPOUND", "pKa"],
 "data": [
  ["O=C(O)c1cc(=O)c2ccccc2[nH]1 [kynurenic acid]", 3.1]
]}

* * *

# ASSAY_INFO: 1H NMR-pH titration (macroscopic and microscopic pKa)
# Type: physicochemical
# APPLIED_CONDITIONS: H2O/D2O 95:5 (v/v), macroconstant from methylene signal; 298.15 K, ionic strength 0.15 mol/L; read-out: pKa2 (NMR)

{"columns": ["MOLECULE", "pKa"],
 "data": [
  ["Nc1c(O)cccc1C(=O)CC(N)C(=O)O (centres unmarked) [3-hydroxykynurenine]", 2.69],
  ["Nc1ccccc1C(=O)C[C@H](N)C(=O)O", 2.49]
]}
